In this section we review reported MIC Staphylococcus aureus (GC 4545) values for a set of compounds.
Tested on: Staphylococcus sp.
Test: In vitro antibacterial evaluation: minimum inhibitory concentration (MIC), broth dilution method
Type: cell-based
Conditions: Staphylococcus aureus (GC 4545); 18 hours at 35° C.
Dear colleague, please return just the value in µg/mL, with no unit written.

# count of solved cases: 5
- Compound: "CC(C)CCC(=O)OC1C(OC2C(CO)OC(Oc3ccc(CC4NC(=O)C(C(C)c5ccccc5)NC(=O)CNC(=O)C(CO)NC(=O)C(C(O)C5CNC(=N)N5C5OC(CO)C(O)C(O)C5O)NC(=O)C(C(O)C5CNC(=N)N5)NC4=O)cc3)C(O)C2O)OC(CO)C(O)C1O (stereo not shown) [Example 270a]"
  MIC Staphylococcus aureus (GC 4545) (µg/mL): 4
- Compound: "CC=C(C)C(=O)OC1C(CO)OC(OC2C(CO)OC(Oc3ccc(CC4NC(=O)C(C(C)c5ccccc5)NC(=O)CNC(=O)C(CO)NC(=O)C(C(O)C5CNC(=N)N5C5OC(CO)C(O)C(O)C5O)NC(=O)C(C(O)C5CNC(=N)N5)NC4=O)cc3)C(O)C2O)C(O)C1O (stereo not shown) [Example 278b]"
  MIC Staphylococcus aureus (GC 4545) (µg/mL): 4
- Compound: "COc1ccc(COC2C(CO)OC(OC3C(CO)OC(Oc4ccc(CC5NC(=O)C(C(C)c6ccccc6)NC(=O)CNC(=O)C(CO)NC(=O)C(C(O)C6CNC(=N)N6C6OC(CO)C(O)C(O)C6O)NC(=O)C(C(O)C6CNC(=N)N6)NC5=O)cc4)C(O)C3O)C(O)C2O)cc1OCc1ccccc1 (stereo not shown) [Example 239a]"
  MIC Staphylococcus aureus (GC 4545) (µg/mL): 4
- Compound: "CC(c1ccccc1)C1NC(=O)CNC(=O)C(CO)NC(=O)C(C(O)C2CNC(=N)N2C2OC(CO)C(O)C(O)C2O)NC(=O)C(C(O)C2CNC(=N)N2)NC(=O)C(Cc2ccc(OC3OC(CO)C(OC4OC(CO)C(OCC=C(c5ccccc5)c5ccccc5)C(O)C4O)C(O)C3O)cc2)NC1=O (stereo not shown) [Example 241a]"
  MIC Staphylococcus aureus (GC 4545) (µg/mL): 2
- Compound: "CC(C)CC(=O)OC1C(OC2C(CO)OC(Oc3ccc(CC4NC(=O)C(C(C)c5cccs5)NC(=O)CNC(=O)C(CO)NC(=O)C(C(O)C5CNC(=N)N5C5OC(CO)C(O)C(O)C5O)NC(=O)C(C(O)C5CNC(=N)N5)NC4=O)cc3)C(O)C2O)OC(CO)C(O)C1O (stereo not shown) [Example 265a]"
  MIC Staphylococcus aureus (GC 4545) (µg/mL): 16

Moving on to the next compound.
Staphylococcus sp. / MIC Staphylococcus aureus (GC 4545) / CC(c1ccccc1)C1NC(=O)CNC(=O)C(CO)NC(=O)C(C(O)C2CNC(=N)N2C2OC(CO)C(O)C(O)C2O)NC(=O)C(C(O)C2CNC(=N)N2)NC(=O)C(Cc2ccc(OC3OC(CO)C(OC4OC(COCc5cccs5)C(O)C(O)C4O)C(O)C3O)cc2)NC1=O (stereo not shown) : value?
8

----------
In this section we review reported MIC Coagulase Negative Staphylococcus (GC 4549) values for a set of molecules.
Tested on: Staphylococcus sp.
Assay: In vitro antibacterial evaluation: minimum inhibitory concentration (MIC), broth dilution method
Assay type: cell-based
Settings: strain GC 4549
Dear colleague, please return just the value in µg/mL, with no unit written.

- Molecule: "CCC(CC)C1OCC2OC(OC3C(CO)OC(Oc4ccc(CC5NC(=O)C(C(C)c6ccccc6)NC(=O)CNC(=O)C(CO)NC(=O)C(C(O)C6CNC(=N)N6C6OC(CO)C(O)C(O)C6O)NC(=O)C(C(O)C6CNC(=N)N6)NC5=O)cc4)C(O)C3O)C(O)C(O)C2O1 (stereo not drawn)"
  Numeric Result: 1

Moving on to the next molecule.
Entry CC(c1ccccc1)C1NC(=O)CNC(=O)C(CO)NC(=O)C(C(O)C2CNC(=N)N2C2OC(CO)C(O)C(O)C2O)NC(=O)C(C(O)C2CNC(=N)N2)NC(=O)C(Cc2ccc(OC3OC(CO)C(OC4OC5COC(CC6CCCCC6)OC5C(O)C4O)C(O)C3O)cc2)NC1=O (stereo not drawn) has what MIC Coagulase Negative Staphylococcus (GC 4549)?
1
